Test system: E.G7 (OVA) cells
Conditions Used: E:T 12.5:1; s.c. 25 μg OVA in AGP preparation, spleen cells 21 days later
Readout Type: % Cytotoxicity
I'd appreciate it if you wrote the number followed by its unit.

The cases that follow already have their % Cytotoxicity on record.
CCCCCCCCCCC[C@H](CC(=O)N[C@H]1[C@H](OCCCN(CC(=O)O)C(=O)C[C@@H](CCCCCCCCCCC)OC(=O)CCCCCCCCC)O[C@H](CO)[C@@H](OP(=O)(O)O)[C@@H]1OC(=O)C[C@@H](CCCCCCCCCCC)OC(=O)CCCCCCCCC)OC(=O)CCCCCCCCC.CCN(CC)CC [B28]	9%
CCCCCCCCCCCCCC(=O)O[C@H](CCCCCCCCCCC)CC(=O)N[C@H]1[C@H](OC[C@H](NC(=O)C[C@@H](CCCCCCCCCCC)OC(=O)CCCCCCCCCCCCC)C(=O)OC)O[C@H](CO)[C@@H](OP(=O)(O)O)[C@@H]1OC(=O)C[C@@H](CCCCCCCCCCC)OC(=O)CCCCCCCCCCCCC.CCN(CC)CC [B26]	4%

Look up and state reported % Cytotoxicity for CCCCCCCCCCCC(=O)O[C@H](CCCCCCCCCCC)CC(=O)N[C@H]1[C@H](OC[C@H](NC(=O)C[C@@H](CCCCCCCCCCC)OC(=O)CCCCCCCCCCC)C(=O)O)O[C@H](CO)[C@@H](OP(=O)(O)O)[C@@H]1OC(=O)C[C@@H](CCCCCCCCCCC)OC(=O)CCCCCCCCCCC.CCN(CC)CC [B12]
4%

Identify the reported % Cytotoxicity for the following entry. CCCCCCCCCCCCCC(=O)O[C@H](CCCCCCCCCCC)CC(=O)N[C@H]1[C@H](OCCN(CC(=O)O)C(=O)C[C@@H](CCCCCCCCCCC)OC(=O)CCCCCCCCCCCCC)O[C@H](CO)[C@@H](OP(=O)(O)O)[C@@H]1OC(=O)C[C@@H](CCCCCCCCCCC)OC(=O)CCCCCCCCCCCCC.CCN(CC)CC [B27]
5%

----------
Tested on: E.G7 (OVA) cells
Conditions Used: E:T 25:1; s.c. 25 μg OVA in AGP preparation, spleen cells 21 days later
Readout Type: % Cytotoxicity (%)
Dear colleague, please return just the value in %, with no unit written.

Worked examples, 3 compounds total:
CCCCCCCCCCC[C@H](CC(=O)N[C@H]1[C@H](OCCCN(CC(=O)O)C(=O)C[C@@H](CCCCCCCCCCC)OC(=O)CCCCCCCCC)O[C@H](CO)[C@@H](OP(=O)(O)O)[C@@H]1OC(=O)C[C@@H](CCCCCCCCCCC)OC(=O)CCCCCCCCC)OC(=O)CCCCCCCCC.CCN(CC)CC	15
CCCCCCCCCCCCCC(=O)O[C@H](CCCCCCCCCCC)CC(=O)N[C@H]1[C@H](OC[C@H](NC(=O)C[C@@H](CCCCCCCCCCC)OC(=O)CCCCCCCCCCCCC)C(=O)OC)O[C@H](CO)[C@@H](OP(=O)(O)O)[C@@H]1OC(=O)C[C@@H](CCCCCCCCCCC)OC(=O)CCCCCCCCCCCCC.CCN(CC)CC	8
CCCCCCCCCCCCCC(=O)O[C@H](CCCCCCCCCCC)CC(=O)N[C@H]1[C@H](OCCN(CC(=O)O)C(=O)C[C@@H](CCCCCCCCCCC)OC(=O)CCCCCCCCCCCCC)O[C@H](CO)[C@@H](OP(=O)(O)O)[C@@H]1OC(=O)C[C@@H](CCCCCCCCCCC)OC(=O)CCCCCCCCCCCCC.CCN(CC)CC	9

Now let's try a different one.
Let me know recorded % Cytotoxicity for CCCCCCCCCCCC(=O)O[C@H](CCCCCCCCCCC)CC(=O)N[C@H]1[C@H](OC[C@H](NC(=O)C[C@@H](CCCCCCCCCCC)OC(=O)CCCCCCCCCCC)C(=O)O)O[C@H](CO)[C@@H](OP(=O)(O)O)[C@@H]1OC(=O)C[C@@H](CCCCCCCCCCC)OC(=O)CCCCCCCCCCC.CCN(CC)CC , thanks.
7
